# Test system: GRK4
# conditionDescription: concentration: 1 μM,replicates: in singlicate; n = 1;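 also: KINOMEscan kinase panel screen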
metric: %Inh (%)
Response body: numeric value in %, unit text excluded.

[Q] # lookup: %Inh of `OCCn1cc(-c2cnc3nnn(Cc4ccc5ncccc5c4)c3n2)cn1`
[A] 0

[Q] Moving on to the next molecule: `CNC(=O)c1ccccc1Nc1nc(Nc2cccc(CS(C)(=O)=O)c2)ncc1C.O=CO`
[A] 85

[Q] Next entry: `CN1CCN(CCCNc2nccc(-c3c(-c4ccc(F)cc4)nn4cc(C(N)=O)ccc34)n2)CC1`
[A] 9

[Q] Same for `Cc1cccc(-c2nc(Nc3ccncc3)c3sccc3n2)n1`
[A] 15

[Q] Follow-up entry: `CCN1CCN(CCCC(=O)Nc2n[nH]c3nc(-c4ccc(O)cc4)c(Br)cc23)CC1`
[A] 21

[Q] Query `CN1CCN(CCNc2nc3cc(Oc4ccc(NC(=O)Nc5cc(C(F)(F)F)ccc5F)cc4)ccc3[nH]2)CC1.Cl.Cl` next
[A] 17

[Q] How about this molecule: `Cc1ccc(C(=O)Nc2ccc(Oc3ccc4nc(NC(=O)C5CC5)cn4c3)c(F)c2)c(=O)n1-c1ccccc1`
[A] 13

[Q] // repeat for `COc1cccc(C2=C(Nc3cccc(Cl)c3)C(=O)NC2=O)c1` and report
[A] 27

[Q] Try this molecule too: `COC(=O)c1cccc(NC(=O)NC2CCN(c3ccnc(NCc4ccc(F)cc4)n3)CC2)c1`
[A] 0

[Q] Another molecule to look at: Cc1nnc(-c2ccc3occ(-c4ccc(S(C)=O)cc4)c3n2)o1 (stereo not shown)
[A] 33

[Q] One more molecule: `CN(c1ccc2c(c1)nc(NCc1ccc(F)cc1)n2C)c1ccnc(Nc2ccc(CS(C)(=O)=O)cc2)n1.Cl`
[A] 0

[Q] Ok, now `O=C(Nc1ccccc1)c1cccc(Oc2ccc3nccn3n2)c1`
[A] 0

[Q] Entry to check: COc1cccc(CNC(=O)NC2CCN(c3ccnc(Nc4cc(OC)c(OC)c(OC)c4)n3)C2)c1 (stereo not shown)
[A] 74

[Q] Next up: CS(=O)c1ccc(-c2coc3ccc(-c4n[nH]c(=O)o4)cc23)cc1 (stereo not shown)
[A] 19

[Q] How about `Cc1ccc2c(-c3ccnc(Nc4ccc(C(F)(F)F)cc4)n3)cnn2n1` ?
[A] 21

[Q] Same again, this time with `FC(F)(F)c1cc(Br)cc(Nc2nccc(-c3cnn4ncccc34)n2)c1`
[A] 0

[Q] `CC(=O)Nc1nc2cnc(Nc3cc(NC(=O)c4cccc(CC(C)(C)C#N)c4)ccc3C)nc2s1` ?
[A] 0

[Q] Field entry: `CN(c1ccccc1CNc1nc(Nc2ccc3c(c2)CC(=O)N3)ncc1C(F)(F)F)S(C)(=O)=O`
[A] 7

[Q] And for `CCn1c(-c2nonc2N)nc2cncc(CNC3CCNCC3)c21.Cl` ?
[A] 0

[Q] Now this one: `C[C@@H]1CCN(C(=O)N2CCCC2)C[C@@H]1N(C)c1ncnc2[nH]ccc12`
[A] 17

[Q] Now consider `O=C(Nc1cccc(Oc2ccc3nccn3n2)c1)Nc1cccc(C(F)(F)F)c1` .
[A] 1

[Q] Entry COc1ccc(Nc2nccc(N3CCC(NC(=O)c4cccc(C#N)c4)C3)n2)cc1 (stereo not shown) please
[A] 0

[Q] Please give the result for `Cn1ccc2ncnc(Oc3ccc(NC(=O)Nc4ccnc(C(F)(F)F)c4)c(Cl)c3)c21` too.
[A] 100

[Q] What do we get for `O=C(Nc1n[nH]c2cc(-c3ccco3)ccc12)C1CC1` ?
[A] 68

[Q] Continue with `CCOC(=O)N1CCC(n2cnc(-c3ccc(F)cc3)c2-c2ccnc(N)n2)CC1`
[A] 32

[Q] Then this molecule: `COc1cc2nccc(Nc3ccc(Oc4ccccc4)cc3)c2cc1OC.Cl`
[A] 0

[Q] # repeat for COc1cc(Nc2nccc(N3CCC(NC(=O)c4cccc(C#N)c4)C3)n2)cc(OC)c1OC (stereo not shown)
[A] 0

[Q] Follow-up item: `CC(C)c1nc(-c2cccc(NS(=O)(=O)c3ccccc3)c2)c(-c2ccnc(Nc3ccc4c(c3)CN(C)CC4)n2)s1`
[A] 0

[Q] Would you mind doing `Cn1ccc2ncnc(Oc3ccc(NC(=O)Nc4cccc(C(F)(F)F)c4)c(F)c3)c21` as well?
[A] 24

[Q] Okay, and COC(=O)c1cccc(NC(=O)NC2CCN(c3ccnc(Nc4cc(OC)c(OC)c(OC)c4)n3)C2)c1 (stereo not shown) ?
[A] 0

[Q] Could you do the same for CCNCC(Cc1ccccc1)NC(=O)c1cc(Br)c(-c2ccnc3[nH]ccc23)s1.Cl.Cl (stereo not shown) , please?
[A] 0

[Q] Same read-out for `C[C@@H]1CNc2c(sc3ccc4nc(-c5ccncc5)ccc4c23)C(=O)N1` ?
[A] 2

[Q] How about this molecule: `NC(=O)c1ccc(-c2cc3ncnc(SCC(=O)O)c3s2)cc1`
[A] 0

[Q] Proceed to `COc1cc2c(Nc3ccc(NC(=O)c4ccccc4)cc3)ncnc2cc1OCCCN1CCOCC1`
[A] 12

###

Can you tell me %Inh for the items I'm about to list?
# System: GRK7
# conditionDescription: concentration: 1 μM,replicates: in singlicate; n = 1
Field: numeric (%). Do not append units.

[Q] Recorded %Inh for `Cn1ccc2ncnc(Oc3ccc(NC(=O)Nc4cnn(C(C)(C)C)c4)c(Cl)c3)c21` with GRK7, please?
[A] 0

[Q] Repeat for the following compound: `CCOC(=O)N1CCC(n2cnc(-c3ccc(F)cc3)c2-c2ccnc(N)n2)CC1`
[A] 20

[Q] Record: `Cl.c1ccc(Oc2ccc(Nc3ccnc4cc(-c5ccc(CN6CCNCC6)o5)ccc34)cc2)nc1`
[A] 0

[Q] Okay, and Cc1nnc(-c2ccc3occ(-c4ccc(S(C)=O)cc4)c3n2)o1 (centres unmarked) ?
[A] 0

[Q] Next up: `O=C1NCCc2[nH]c(-c3ccncc3)cc21`
[A] 27

[Q] Same for COc1ccc(Nc2nccc(N3CCC(NC(=O)c4cccc(C#N)c4)C3)n2)cc1 (centres unmarked)
[A] 0

[Q] Record: `C[C@@H](Oc1cc(-n2cnc3cc(-c4ccncc4)ccc32)sc1C(N)=O)c1ccccc1Cl`
[A] 0

[Q] Okay, and `Nc1nccc(-c2ccc3c(N)n[nH]c3c2)n1` ?
[A] 0

[Q] Thanks! And `O=C(Nc1ccc(Oc2ccc3nc(NC(=O)C4CC4)cn3n2)c(F)c1)c1cccn(-c2ccccc2)c1=O` ?
[A] 0

[Q] Thanks! And N#Cc1cccc(C(=O)NC2CCN(c3ccnc(Nc4ccc(F)cc4)n3)C2)c1 (centres unmarked) ?
[A] 0

[Q] Please answer likewise for `NC(=O)c1ccc(-c2cc3ncnc(SCC(=O)O)c3s2)cc1`
[A] 0

[Q] How about `CCn1c(-c2nonc2N)nc2cncc(Br)c21` ?
[A] 16

[Q] Now consider `CN(c1ccc2c(c1)nc(NCc1ccc(F)cc1)n2C)c1ccnc(Nc2ccc(CS(C)(=O)=O)cc2)n1.Cl` and answer again.
[A] 0

[Q] # repeat for `O=C(NCC1CC1)c1ccc(-c2cc(C(=O)NC3CC3)ccc2F)cc1`
[A] 0

[Q] Field entry: `NC(=O)Nc1sc(-c2ccc(F)cc2)cc1C(N)=O`
[A] 26

[Q] Another compound to check: `Cc1ccc2c(-c3ccnc(Nc4ccc(C(F)(F)F)cc4)n3)cnn2n1`
[A] 0

[Q] Same again, this time with COc1cccc(CNC(=O)NC2CCN(c3ccnc(Nc4cc(OC)c(OC)c(OC)c4)n3)C2)c1 (centres unmarked)
[A] 0

[Q] Another compound to check: `CC(=O)Nc1nc2cnc(Nc3cc(NC(=O)c4cccc(CC(C)(C)C#N)c4)ccc3C)nc2s1`
[A] 44

[Q] How about this compound: `Cc1ccc(CC(=O)N2CCc3cc(-c4cn(C)c5ncnc(N)c45)ccc32)cc1`
[A] 0

[Q] Next up: `Cc1ccc(Nc2ccnc(Nc3ccc4c(c3)CS(=O)(=O)C4)n2)cc1O.Cl`
[A] 0

[Q] Also need `COc1cc2ncn(-c3cc(OCC4CCCCC4)c(C(N)=O)s3)c2cc1OC` , thanks.
[A] 98

[Q] One more compound: `Cc1cccc2c(-c3ccncc3)c(-c3ccc(F)cc3)nn12.Cl`
[A] 0

[Q] Also check `O=C(Nc1n[nH]c2cc(-c3ccco3)ccc12)C1CC1`
[A] 3

[Q] Moving on to the next compound: `C[C@@H]1CNc2c(sc3ccc4nc(-c5ccc(O)cc5)ccc4c23)C(=O)N1`
[A] 24

[Q] Same lookup for COc1cc(Nc2nccc(N3CCC(NC(=O)c4cccc(C#N)c4)C3)n2)cc(OC)c1OC (centres unmarked) , please.
[A] 0

[Q] And what about the compound `CC(=O)c1c(-c2ccncc2)[nH]c(-c2ccncc2)c1C` ?
[A] 0

[Q] Another compound to look at: `Cn1ccc2ncnc(Oc3ccc(NC(=O)Nc4cncc(C(F)(F)F)c4)c(Cl)c3)c21`
[A] 0

[Q] Then this compound: `COc1cc2nccc(Nc3ccc(Oc4ccccc4)cc3)c2cc1OC.Cl`
[A] 0

[Q] And the next one, `COc1cc2c(Nc3ccc(NC(=O)c4ccccc4)cc3)ncnc2cc1OCCCN1CCOCC1` ?
[A] 0

[Q] Another compound to check: `Cn1ccc2ncnc(Oc3ccc(NC(=O)Nc4cc(C(C)(C)C)on4)c(Cl)c3)c21`
[A] 8

[Q] Also `C[C@@H]1CCN(C(=O)N2CCCC2)C[C@@H]1N(C)c1ncnc2[nH]ccc12` , if possible.
[A] 8

[Q] What would you report for `Cc1cccc(-c2nc(Nc3ccncc3)c3sccc3n2)n1` ?
[A] 42
